Let's look at some compounds and their measured composite z-score.
Assay: probe aInhba binding on compound microarray – biochemical, small-molecule microarray, 635/667 nm fluorescence, primary screen (AID 1148);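 also: score merges 667nm spot fluorescence with signal-to-noise for antibody binding to printed compounds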
Settings: higher = more signal

COMPOUND	composite z-score
CN(C)CCCCCCNC(=O)[C@@H]1C[C@@H]2C(=O)N[C@@H](Cc3ccccc3)C(=O)N2[C@@H]1c1cccc(OCCO)c1	-0.0209
C[N+](C)(C)CCCCNC(=O)[C@H]1C[C@H]2C(=O)N3CCC[C@H]3C(=O)N2[C@H]1c1ccc(O)cc1	-0.164
COCCn1c(C(=O)N2CCCC2)cc2c1C[C@H]1CN(C(=O)c3ccccc3)[C@@](Cc3ccc(OC)cc3)(C(=O)OC)[C@@H]21	0.739
O=C1O[C@H](c2ccccc2)[C@H](c2ccccc2)N2[C@H]1[C@@H](C(=O)N1CCCCCCC1)[C@]1(C(=O)Nc3ccc(C#CC4=CCCCC4)cc31)[C@H]2c1ccc(O)cc1	1.98
CCN(CC)c1ccc(N2CC=CC34O[C@@H]5C=CCCOC(=O)C5[C@H]3C(=O)N(CCCO)[C@@H]4C2=O)cc1 (stereo partly specified)	0.0051
COc1ccc(C(=O)Nc2cccc(CN3C(=O)[C@@]4(O[C@@H](CCn5cc([C@H](O)c6ccccc6)nn5)[C@H]([Si](C)(C)c5ccc(OC)cc5)[C@H]4C)c4ccccc43)c2)cc1	0.0714
